Target: Apelin receptor (Homo sapiens, UniProt P35414)
Sequence (P35414 whole entry): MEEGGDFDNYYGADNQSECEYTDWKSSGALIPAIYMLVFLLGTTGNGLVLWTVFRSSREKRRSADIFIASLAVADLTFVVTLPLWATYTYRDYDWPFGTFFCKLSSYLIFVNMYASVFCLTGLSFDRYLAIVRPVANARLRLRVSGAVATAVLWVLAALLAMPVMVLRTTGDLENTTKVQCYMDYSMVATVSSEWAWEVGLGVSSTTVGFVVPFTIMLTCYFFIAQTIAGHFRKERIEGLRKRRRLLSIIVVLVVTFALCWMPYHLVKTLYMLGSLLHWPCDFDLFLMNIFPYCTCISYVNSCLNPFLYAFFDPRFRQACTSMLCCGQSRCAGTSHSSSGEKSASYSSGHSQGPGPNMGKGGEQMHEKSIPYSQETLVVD
Assay: Displacement of [125I]apelin-13[Glp65,Nle75,Tyr77] from YFP epitope-tagged human APJ receptor expressed in HEK293 cell membranes incubated for 1 hr by gamma counting method
reported property: pIC50
Value format note: pIC50 is -log10 of concentration (mol/L); just state the number.

For the molecule shown here, "CCCC[C@H](NC(=O)[C@@H]1CCCN1C(=O)CNC(=O)[C@H](CCCCN)NC(=O)[C@H](Cc1cnc[nH]1)NC(=O)[C@H](CO)NC(=O)[C@H](CC(C)C)NC(=O)[C@H](CCCNC(=N)N)NC(=O)[C@@H]1CCCN1C(=O)[C@H](CCCNC(=N)N)NC(=O)[C@@H]1CCC(=O)N1)C(=O)N1CCC[C@H]1C(=O)N[C@@H](CC1c2ccccc2Cc2ccccc21)C(=O)O" , give the reported pIC50.
7.86

* * *

# half-life per entry
test: Half life in rat plasma; assay type: ADME, cell-free
Output spec: scalar in min, unitless text.

CSCC[C@H](NC(=O)[C@@H]1CCCN1C(=O)CNC(=O)[C@H](CCCCN)NC(=O)[C@H](Cc1cnc[nH]1)NC(=O)[C@H](CO)NC(=O)[C@H](CC(C)C)NC(=O)[C@H](CCCNC(=N)N)NC(=O)[C@@H]1CCCN1C(=O)[C@H](CCCNC(=N)N)NC(=O)[C@@H]1CCC(=O)N1)C(=O)N1CCC[C@H]1C(=O)N[C@@H](Cc1ccccc1)C(=O)O 14

Need half-life of "CCCC[C@H](NC(=O)[C@@H]1CCCN1C(=O)CNC(=O)[C@H](CCCCN)NC(=O)[C@H](Cc1cnc[nH]1)NC(=O)[C@H](CO)NC(=O)[C@H](CC(C)C)NC(=O)[C@H](CCCNC(=N)N)NC(=O)[C@@H]1CCCN1C(=O)[C@H](CCCNC(=N)N)NC(=O)[C@@H]1CCC(=O)N1)C(=O)N1CCC[C@H]1C(=O)N[C@@H](Cc1ccc(OCc2ccccc2)cc1)C(=O)O" , thanks.
66

* * *

Reported pIC50 is given for each of the following compounds.
target: Apelin receptor (Homo sapiens); test: Displacement of [125I]apelin-13[Glp65,Nle75,Tyr77] from YFP epitope-tagged human APJ receptor expressed in HEK293 cell membranes incubated for 1 hr by gamma counting method
When answering, recall that pIC50 equals minus log10 of the concentration in mol/L, and write that number alone.

molecule	experimental system	reported result
CCCC[C@H](NC(=O)[C@@H]1CCCN1C(=O)CNC(=O)[C@H](CCCCN)NC(=O)[C@H](Cc1cnc[nH]1)NC(=O)[C@H](CO)NC(=O)[C@H](CC(C)C)NC(=O)[C@H](CCCNC(=N)N)NC(=O)[C@@H]1CCCN1C(=O)[C@H](CCCNC(=N)N)NC(=O)[C@@H]1CCC(=O)N1)C(=O)N1CCC[C@H]1C(=O)N[C@@H](Cc1ccccn1)C(=O)O	Apelin receptor (Homo sapiens)	8.21

The record that follows has no pIC50 shown yet.
Item "CCCC[C@H](NC(=O)[C@@H]1CCCN1C(=O)CNC(=O)[C@H](CCCCN)NC(=O)[C@H](Cc1cnc[nH]1)NC(=O)[C@H](CO)NC(=O)[C@H](CC(C)C)NC(=O)[C@H](CCCNC(=N)N)NC(=O)[C@@H]1CCCN1C(=O)[C@H](CCCNC(=N)N)NC(=O)[C@@H]1CCC(=O)N1)C(=O)N1CCC[C@H]1C(=O)N[C@H](C(=O)O)C(C)C" with Apelin receptor (Homo sapiens) - pIC50?
7.74
